test system: SF-268; assay: NCI SRB growth inhibition (single dose 10 µM / five-dose); type: cell-based, human; settings: Homo sapiens; SF-268 (CNS cancer), 10 µM; read-out: GI%
Classification field: enter Y for inhibition at 10 µM values not below 40%, N for values below it.

COc1ccc(C=NNC(=O)c2ccc3[nH]c(-c4ccc(Cl)cc4)nc3c2)cc1O [8s]: Y
COc1cccc(C=NNC(=O)c2ccc3[nH]c(-c4ccc(Cl)cc4)nc3c2)c1O [8r]: Y
COc1cc(C=NNC(=O)c2ccc3[nH]c(-c4ccccc4)nc3c2)cc(OC)c1OC [8g]: N
COc1ccc(-c2nc3cc(C(=O)NN=Cc4cccc(OC)c4)ccc3[nH]2)cc1 [8j]: Y
COc1cccc(C=NNC(=O)c2ccc3[nH]c(-c4ccccc4)nc3c2)c1 [8c]: N
COc1ccc(OC)c(C=NNC(=O)c2ccc3[nH]c(-c4ccc(Cl)cc4)nc3c2)c1 [8t]: Y

-- ask I'd appreciate it if you could say whether COc1cccc(C=NNC(=O)c2ccc3[nH]c(-c4ccc(Cl)cc4)nc3c2)c1 [8q] has inhibition at 10 µM at least equal to 40%.
-- reply Y

-- ask I'd appreciate it if you could say whether O=C(NN=Cc1cccc(O)c1)c1ccc2[nH]c(-c3ccccc3)nc2c1 [8b] has inhibition at 10 µM at least equal to 40%.
-- reply N

====

test system: SK-MEL-2; experiment: NCI SRB growth inhibition (single dose 10 µM / five-dose); type: cell-based, human; conditions: Homo sapiens; SK-MEL-2, Melanoma; five-dose
Each record is given TRUE if its reported GI50 is strictly below 5 µM. Records at or above 5 µM are given FALSE.

COc1cccc(C=NNC(=O)c2ccc3[nH]c(-c4ccccc4)nc3c2)c1O [8d]: TRUE

-- ask Take the compound COc1ccc(-c2nc3cc(C(=O)NN=Cc4cccc(OC)c4O)ccc3[nH]2)cc1 [8k] and say whether its GI50 is less than 5 µM.
-- reply FALSE

-- ask Take the compound COc1ccc(-c2nc3cc(C(=O)NN=Cc4ccccc4O)ccc3[nH]2)cc1 [8h] and say whether its GI50 is less than 5 µM.
-- reply FALSE

-- ask Take the compound COc1cccc(C=NNC(=O)c2ccc3[nH]c(-c4ccc(Cl)cc4)nc3c2)c1 [8q] and say whether its GI50 is less than 5 µM.
-- reply TRUE

-- ask Take the compound COc1ccc(-c2nc3cc(C(=O)NN=Cc4cccc(OC)c4)ccc3[nH]2)cc1 [8j] and say whether its GI50 is less than 5 µM.
-- reply FALSE

-- ask Take the compound COc1cc(C=NNC(=O)c2ccc3[nH]c(-c4ccc(Cl)cc4)nc3c2)cc(OC)c1OC [8u] and say whether its GI50 is less than 5 µM.
-- reply FALSE

-- ask Take the compound O=C(NN=Cc1ccccc1O)c1ccc2[nH]c(-c3ccc(Cl)cc3)nc2c1 [8o] and say whether its GI50 is less than 5 µM.
-- reply TRUE

====

tested on: HS 578 T; test: NCI SRB growth inhibition (single dose 10 µM / five-dose); type: cell-based, human; details: Homo sapiens; HS 578 T (Breast cancer), 10 µM; read-out: GI%
Classification field: enter TRUE for inhibition at 10 µM values not below 50%, FALSE for values below it.

A selection of reference data follows.
COc1ccc(-c2nc3cc(C(=O)NN=Cc4cc(OC)ccc4OC)ccc3[nH]2)cc1: FALSE
COc1ccc(-c2nc3cc(C(=O)NN=Cc4cccc(OC)c4O)ccc3[nH]2)cc1: TRUE
COc1cccc(C=NNC(=O)c2ccc3[nH]c(-c4ccc(Cl)cc4)nc3c2)c1: TRUE
O=C(NN=Cc1cccc(O)c1)c1ccc2[nH]c(-c3ccc(Cl)cc3)nc2c1: FALSE
O=C(NN=Cc1cccc(O)c1)c1ccc2[nH]c(-c3ccccc3)nc2c1: FALSE
COc1cccc(C=NNC(=O)c2ccc3[nH]c(-c4ccccc4)nc3c2)c1: FALSE

Pending compound:
-- ask I'd appreciate it if you could say whether O=C(NN=Cc1ccccc1O)c1ccc2[nH]c(-c3ccc(Cl)cc3)nc2c1 has inhibition at 10 µM at least equal to 50%.
-- reply TRUE

====

test system: DU-145; test: NCI SRB growth inhibition (single dose 10 µM / five-dose); assay type: cell-based, human; details: Homo sapiens; DU-145 (Prostate cancer), 10 µM; read-out: GI%
Classification field: enter t for inhibition at 10 µM values not below 20%, f for values below it.

O=C(NN=Cc1cccc(O)c1)c1ccc2[nH]c(-c3ccc(Cl)cc3)nc2c1 [8p]: f

-- ask I'd appreciate it if you could say whether COc1ccc(-c2nc3cc(C(=O)NN=Cc4ccc(OC)c(O)c4)ccc3[nH]2)cc1 [8l] has inhibition at 10 µM at least equal to 20%.
-- reply t

-- ask I'd appreciate it if you could say whether COc1cccc(C=NNC(=O)c2ccc3[nH]c(-c4ccccc4)nc3c2)c1 [8c] has inhibition at 10 µM at least equal to 20%.
-- reply f

-- ask I'd appreciate it if you could say whether COc1ccc(OC)c(C=NNC(=O)c2ccc3[nH]c(-c4ccccc4)nc3c2)c1 [8f] has inhibition at 10 µM at least equal to 20%.
-- reply f

-- ask I'd appreciate it if you could say whether COc1cccc(C=NNC(=O)c2ccc3[nH]c(-c4ccc(Cl)cc4)nc3c2)c1 [8q] has inhibition at 10 µM at least equal to 20%.
-- reply t

====

test system: SK-MEL-28; experiment: NCI SRB growth inhibition (single dose 10 µM / five-dose); format: cell-based, human; conditions: Homo sapiens; SK-MEL-28 (Melanoma), 10 µM; read-out: GI%
Classification field: enter yes for inhibition at 10 µM values not below 50%, no for values below it.

A selection of reference data follows.
COc1ccc(-c2nc3cc(C(=O)NN=Cc4cccc(OC)c4)ccc3[nH]2)cc1: yes
COc1ccc(-c2nc3cc(C(=O)NN=Cc4ccccc4O)ccc3[nH]2)cc1: yes
COc1ccc(-c2nc3cc(C(=O)NN=Cc4cccc(O)c4)ccc3[nH]2)cc1: yes

-- ask I'd appreciate it if you could say whether O=C(NN=Cc1cccc(O)c1)c1ccc2[nH]c(-c3ccc(Cl)cc3)nc2c1 has inhibition at 10 µM at least equal to 50%.
-- reply no

-- ask I'd appreciate it if you could say whether COc1ccc(-c2nc3cc(C(=O)NN=Cc4cccc(OC)c4O)ccc3[nH]2)cc1 has inhibition at 10 µM at least equal to 50%.
-- reply yes

-- ask I'd appreciate it if you could say whether COc1cc(C=NNC(=O)c2ccc3[nH]c(-c4ccccc4)nc3c2)cc(OC)c1OC has inhibition at 10 µM at least equal to 50%.
-- reply no

-- ask I'd appreciate it if you could say whether O=C(NN=Cc1cccc(O)c1)c1ccc2[nH]c(-c3ccccc3)nc2c1 has inhibition at 10 µM at least equal to 50%.
-- reply no

-- ask I'd appreciate it if you could say whether COc1ccc(C=NNC(=O)c2ccc3[nH]c(-c4ccccc4)nc3c2)cc1O has inhibition at 10 µM at least equal to 50%.
-- reply no

-- ask I'd appreciate it if you could say whether COc1ccc(OC)c(C=NNC(=O)c2ccc3[nH]c(-c4ccccc4)nc3c2)c1 has inhibition at 10 µM at least equal to 50%.
-- reply no

-- ask I'd appreciate it if you could say whether COc1cccc(C=NNC(=O)c2ccc3[nH]c(-c4ccc(Cl)cc4)nc3c2)c1 has inhibition at 10 µM at least equal to 50%.
-- reply yes

====

test system: KM12; assay: NCI SRB growth inhibition (single dose 10 µM / five-dose); format: cell-based, human; details: Homo sapiens; KM12, Colon cancer; five-dose
# GI50 annotations
Just the number in µM, nothing appended.

COc1cccc(C=NNC(=O)c2ccc3[nH]c(-c4ccccc4)nc3c2)c1O: 2.58
COc1ccc(-c2nc3cc(C(=O)NN=Cc4ccccc4O)ccc3[nH]2)cc1: 4.24
COc1ccc(-c2nc3cc(C(=O)NN=Cc4cccc(OC)c4O)ccc3[nH]2)cc1: 2.45
COc1cccc(C=NNC(=O)c2ccc3[nH]c(-c4ccc(Cl)cc4)nc3c2)c1: 4.42
COc1ccc(-c2nc3cc(C(=O)NN=Cc4cccc(OC)c4)ccc3[nH]2)cc1: 4.34

Noted for O=C(NN=Cc1ccccc1O)c1ccc2[nH]c(-c3ccc(Cl)cc3)nc2c1 : its GI50 reads 1.24

Noted for COc1cccc(C=NNC(=O)c2ccc3[nH]c(-c4ccc(Cl)cc4)nc3c2)c1O : its GI50 reads 1.66

Noted for COc1cc(C=NNC(=O)c2ccc3[nH]c(-c4ccc(Cl)cc4)nc3c2)cc(OC)c1OC : its GI50 reads 4.5

====

tested on: SK-OV-3; assay: NCI SRB growth inhibition (single dose 10 µM / five-dose); type: cell-based, human; details: Homo sapiens; SK-OV-3 (Ovarian cancer), 10 µM; read-out: GI%
measured.quantity: inhibition at 10 µM

Take a look at these entries with their results.
COc1cccc(C=NNC(=O)c2ccc3[nH]c(-c4ccccc4)nc3c2)c1 [8c]: 64%
COc1ccc(-c2nc3cc(C(=O)NN=Cc4cc(OC)c(OC)c(OC)c4)ccc3[nH]2)cc1 [8n]: 20.2%
COc1ccc(-c2nc3cc(C(=O)NN=Cc4cccc(O)c4)ccc3[nH]2)cc1 [8i]: 54%
COc1ccc(-c2nc3cc(C(=O)NN=Cc4cccc(OC)c4O)ccc3[nH]2)cc1 [8k]: > 100%
COc1ccc(-c2nc3cc(C(=O)NN=Cc4ccc(OC)c(O)c4)ccc3[nH]2)cc1 [8l]: < 5%

Result for COc1ccc(C=NNC(=O)c2ccc3[nH]c(-c4ccccc4)nc3c2)cc1O [8e] , tested on SK-OV-3, inhibition at 10 µM: 56.3%

Result for COc1ccc(-c2nc3cc(C(=O)NN=Cc4ccccc4O)ccc3[nH]2)cc1 [8h] , tested on SK-OV-3, inhibition at 10 µM: > 100%

Result for COc1cccc(C=NNC(=O)c2ccc3[nH]c(-c4ccc(Cl)cc4)nc3c2)c1O [8r] , tested on SK-OV-3, inhibition at 10 µM: > 100%

Result for COc1cccc(C=NNC(=O)c2ccc3[nH]c(-c4ccc(Cl)cc4)nc3c2)c1 [8q] , tested on SK-OV-3, inhibition at 10 µM: > 100%

Result for COc1ccc(-c2nc3cc(C(=O)NN=Cc4cccc(OC)c4)ccc3[nH]2)cc1 [8j] , tested on SK-OV-3, inhibition at 10 µM: 68.3%
